Test system: PC15
Test: qHTS profiling for inhibitors of Plasmodium falciparum proliferation (AID 504749); note: nearly all actives have a fitted effect of over 60% in size
Details: P. falciparum in erythrocytes, SYBR Green DNA, 72 h; series mostly up to 12.8 µM
Inconclusive results are not listed. Calls of active or inactive are those of the source. Calls come from the whole dose curve; as a rule, active = well fitted inhibition curve with a large enough effect; inconclusive = small, poorly fitted or top-dose-only effect; inactive = flat fitted curve, though single readings scatter.
Please reply with one of these outcomes: True (active), False (inactive)

1) CO/N=C(\C(=O)N[C@@H]1C(=O)N2C(C(=O)O)=C(COC(C)=O)CS[C@@H]12)c1csc(N)n1 ... False
2) CCn1cc(C(=O)O)c(=O)c2cc(F)c(N3CCN[C@@H](C)C3)c(F)c21 ... False
3) CC(C)(C)NC[C@H](O)c1cc(O)cc(O)c1 ... False
4) COc1ccccc1OC[C@H](O)COC(N)=O ... False
5) CCCN(CCC)C(=O)[C@@H](CCC(=O)O)NC(=O)c1ccccc1 ... False

Let us examine a further case.
Please state the recorded outcome for this compound: "Cc1cc(/C=C\c2ccc3cc(N(C)C)ccc3[n+]2C)c(C)n1-c1ccccc1"
True

* * *

System: CP266
Test: qHTS profiling for inhibitors of Plasmodium falciparum proliferation (AID 504749); note: nearly all actives have a fitted effect of over 60% in size
Settings: P. falciparum in erythrocytes, SYBR Green DNA, 72 h; series mostly up to 28.7 µM
Records with an inconclusive call do not appear. Calls of active or inactive are those of the source. Calls come from the whole dose curve; as a rule, active = well fitted inhibition curve with a large enough effect; inconclusive = small, poorly fitted or top-dose-only effect; inactive = flat fitted curve, though single readings scatter.
Please reply with one of these outcomes: label 1 = active, label 0 = inactive

Sample answers from the record:
1. CC(C)NC[C@H](O)c1cc(O)cc(O)c1 ... label 0
2. Cc1cc(/C=C\c2ccc3cc(N(C)C)ccc3[n+]2C)c(C)n1-c1ccccc1 ... label 1
3. CCN(CC)CC#CCOC(=O)[C@@](O)(c1ccccc1)C1CCCCC1 ... label 0
4. C/C=C\C(=O)N(CC)c1ccccc1C ... label 0
5. CN(C)[C@@H]1C(=O)C(C(N)=O)=C(O)[C@]2(O)C(=O)C3=C(O)c4c(O)ccc(Cl)c4[C@H](O)[C@H]3C[C@@H]12 ... label 0

Please state the recorded outcome for this compound: "C[C@@H]1CCC[C@H](C)N1NC(=O)c1ccc(Cl)c(S(N)(=O)=O)c1"
label 0

Please state the recorded outcome for this compound: "CC1(C)Oc2ccc(C#N)cc2[C@H](N2CCCC2=O)[C@H]1O"
label 0

Please state the recorded outcome for this compound: "CCN(CC)CCC[C@H](C)Nc1c2ccc(Cl)cc2nc2ccc(OC)cc12"
label 1

Please state the recorded outcome for this compound: "COCCc1ccc(OC[C@H](O)CNC(C)C)cc1"
label 0

Please state the recorded outcome for this compound: "NC(N)=NC[C@@H]1COC2(CCCCC2)O1"
label 0

Please state the recorded outcome for this compound: "CN(C)[C@H]1C(=O)C(C(=O)NCN2CCCC2)=C(O)[C@]2(O)C(=O)C3=C(O)c4c(O)cccc4[C@@](C)(O)[C@H]3C[C@@H]12"
label 0

* * *

Target: Dual specificity protein kinase CLK4 (Homo sapiens) (UniProt Q9HAZ1)
Sequence (Q9HAZ1 whole entry, looked up): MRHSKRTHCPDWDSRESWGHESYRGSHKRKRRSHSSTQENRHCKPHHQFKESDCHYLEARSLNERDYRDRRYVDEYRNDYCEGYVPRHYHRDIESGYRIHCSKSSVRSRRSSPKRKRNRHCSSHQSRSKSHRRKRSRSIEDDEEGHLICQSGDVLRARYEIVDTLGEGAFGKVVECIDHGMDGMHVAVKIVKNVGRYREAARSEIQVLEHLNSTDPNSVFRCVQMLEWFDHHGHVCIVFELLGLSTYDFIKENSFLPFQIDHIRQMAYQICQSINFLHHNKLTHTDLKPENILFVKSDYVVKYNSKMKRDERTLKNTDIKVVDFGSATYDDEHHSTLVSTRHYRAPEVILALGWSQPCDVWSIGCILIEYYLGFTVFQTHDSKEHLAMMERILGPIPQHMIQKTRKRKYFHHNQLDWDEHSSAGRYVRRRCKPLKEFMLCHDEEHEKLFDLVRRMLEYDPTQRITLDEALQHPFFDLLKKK
Experiment: qHTS Assay for Inhibitors of CDC-like Kinase 4 (Kinase-Glo Assay) (AID 1770); note: nearly all actives have a fitted effect of over 65% in size
Settings: recombinant Clk4, Kinase-Glo ATP depletion luminescence; series mostly up to 66.7 µM
Results filed as inconclusive are left out. Calls of active or inactive are those of the source. Calls follow the shape of the dose curve; as a rule, active = well fitted inhibition curve with a large enough effect; inconclusive = small, poorly fitted or top-dose-only effect; inactive = flat fitted curve, though single readings scatter.
Please reply with one of these outcomes: active, inactive

Sample answers from the record:
1. COc1cccc(Cn2c(=O)c(-c3cn(C)c4ccccc34)nc3cnc(N4CCOCC4)nc32)c1 ... inactive
2. N#CCCn1c(=O)c(-c2cccs2)nc2cnc(N3CCOCC3)nc21 ... inactive
3. COc1cccc(Nc2ncc3nc(-c4cccs4)c(=O)n(Cc4cccs4)c3n2)c1 ... inactive

Please state the recorded outcome for this compound: "N#Cc1cccc(-c2nc3cnc(N4CCOCC4)nc3n(Cc3ccc(F)cc3)c2=O)c1"
inactive

Please state the recorded outcome for this compound: "CN(C)c1ncc2nc(-c3cccs3)c(=O)n(-c3ccccc3)c2n1"
inactive

Please state the recorded outcome for this compound: "COc1ccc(Oc2ncc3ncc(=O)n(C4CC4)c3n2)cc1"
inactive

Please state the recorded outcome for this compound: "Cc1cnc(CNc2ncncc2-c2ccoc2)cn1"
inactive

Please state the recorded outcome for this compound: "COCCn1c(=O)c(-c2ccccc2)nc2cncnc21"
inactive

Please state the recorded outcome for this compound: "CN1CCN(c2cc(-c3ccccc3Cl)ncn2)CC1"
inactive

Please state the recorded outcome for this compound: "COc1ccccc1CNc1ccnc(-c2ccc(N(C)C)cc2)n1"
inactive

Please state the recorded outcome for this compound: "COCCn1c(=O)c(CCc2ccccc2)nc2cnc(Oc3ccc(OC)cc3)nc21"
inactive

Please state the recorded outcome for this compound: "COc1ncc2nc(C)c(=O)n(-c3ccccc3)c2n1"
inactive

Please state the recorded outcome for this compound: "COc1cccc(-c2cc(NCc3ccccc3)ncn2)c1"
active
